Source: patent EP4678638A1

target: human Cereblon WT GST-tagged protein (Homo sapiens); construct: purchased CISBIO 64BDCRBNPEH; experiment: CRBN binding, HTRF (CEREBLON BINDING kit); settings: Table II-2, CRBN binding screening, HTRF; at 2 µM; read-out: Inhibition rate (%) at 2 µM
Some compounds, each annotated with its measured inhibition at 2 µM.

Compound: O=C1CCC(c2cncc(CCl)c2)C(=O)N1 (stereo not shown) [GT-06991]
inhibition at 2 µM: 53 to 60%

Compound: CCc1cc2c(cc1N1CCC(N3CCN(Cc4ccc(C5CCC(=O)NC5=O)cc4)CC3)CC1)C(C)(C)c1[nH]c3cc(C#N)ccc3c1C2=O (stereo not shown) [GT-03762]
inhibition at 2 µM: 60 to 80%

Compound: COc1cc2nn(C3CCN(Cc4cc(C5CCC(=O)NC5=O)cnc4F)CC3)cc2cc1NC(=O)c1cccc(C(F)(F)F)n1 (stereo not shown) [GT-07549]
inhibition at 2 µM: 80 to 100%

Compound: O=C1CCC(c2ccc(CN3CCC(n4cc(NC(=O)c5cnn6ccc(N7C[C@H]8C[C@@H]7CO8)nc56)c(C(F)F)n4)CC3)nc2)C(=O)N1 (stereo partly shown) [GT-07777]
inhibition at 2 µM: 80 to 100%

====

Consider the following compounds and their measured inhibition at 2 µM readings.
target: human Cereblon WT GST-tagged protein (Homo sapiens); construct: purchased CISBIO 64BDCRBNPEH; assay: CRBN binding, HTRF (CEREBLON BINDING kit); conditions: Table II-2, CRBN binding screening, HTRF; at 2 µM; read-out: Inhibition rate (%) at 2 µM

Compound: CNC(=O)c1ccccc1Nc1cc(Nc2ccc(N3CCC(N(C)Cc4cc(C5CCC(=O)NC5=O)cnc4F)CC3)cc2OC)ncc1C(F)(F)F (stereo not drawn)
inhibition at 2 µM: 60 to 80%
--
Compound: [2H]C1([2H])N(CC[C@H](CSc2ccccc2)Nc2ccc(S(=O)(=O)NC(=O)c3ccc(N4CCN(CC5=C(c6ccc(Cl)cc6)CCC(C)(C)C5)CC4)cc3)cc2S(=O)(=O)C(F)(F)F)C([2H])([2H])C([2H])([2H])N(Cc2ccc(C3CCC(=O)NC3=O)cc2)C1([2H])[2H] (stereo partly drawn)
inhibition at 2 µM: 53 to 60%
--
Compound: O=C1CCC(c2cncc(CN3CCC(n4cc(NC(=O)c5cnn6ccc(N7CCOCC7)nc56)c(C(F)F)n4)CC3)c2)C(=O)N1 (stereo not drawn)
inhibition at 2 µM: 80 to 100%
--
Compound: O=C1CCC(c2cnc(F)c(CN3CCC(n4cc(NC(=O)c5cnn6ccc(N7C[C@H]8C[C@@H]7CO8)nc56)c(C(F)F)n4)CC3)c2)C(=O)N1 (stereo partly drawn)
inhibition at 2 µM: 80 to 100%
--
Compound: COc1cc(N2CCN(Cc3ccc(C4CCC(=O)NC4=O)c(F)c3)CC2)ccc1Nc1ncc(Cl)c(Nc2ccccc2P(C)(C)=O)n1 (stereo not drawn)
inhibition at 2 µM: 80 to 100%
--
Compound: CNC(=O)c1ccccc1Nc1cc(Nc2cc(C)c(C3CCN(Cc4ccc(N5CCC(=O)NC5=O)cc4)CC3)cc2OC(C)C)ncc1C(F)(F)F
inhibition at 2 µM: 53 to 60%

====

target: human Cereblon WT GST-tagged protein (Homo sapiens, UniProt Q96SW2); construct: purchased CISBIO 64BDCRBNPEH; experiment: CRBN binding, HTRF (CEREBLON BINDING kit); details: Table II-2, CRBN binding screening, HTRF; at 0.5µM; read-out: Inhibition rate (%) at 0.5µM
Sequence (Q96SW2 whole entry): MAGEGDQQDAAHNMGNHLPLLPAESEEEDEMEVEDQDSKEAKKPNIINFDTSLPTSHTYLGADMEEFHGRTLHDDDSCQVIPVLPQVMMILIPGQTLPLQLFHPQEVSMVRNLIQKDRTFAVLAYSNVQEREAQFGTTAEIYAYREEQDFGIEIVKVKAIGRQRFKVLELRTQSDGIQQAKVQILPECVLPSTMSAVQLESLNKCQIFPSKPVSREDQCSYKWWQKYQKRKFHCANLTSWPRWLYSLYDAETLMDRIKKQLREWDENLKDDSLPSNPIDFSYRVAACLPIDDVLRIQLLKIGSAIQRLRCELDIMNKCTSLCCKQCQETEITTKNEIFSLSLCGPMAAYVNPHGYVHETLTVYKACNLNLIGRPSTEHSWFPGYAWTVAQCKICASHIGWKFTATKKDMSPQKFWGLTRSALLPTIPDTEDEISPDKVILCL

Molecule: CC(=O)c1c(C)c2cnc(Nc3ccc(N4CCN(Cc5cncc(N6CCC(=O)NC6=O)c5)CC4)cn3)nc2n(C2CCCC2)c1=O [GT-07482]
inhibition at 0.5 µM: 20 to 30%
--
Molecule: CNC(=O)c1ccccc1Nc1cc(Nc2cc(C)c(C3CCN(Cc4cc(C5CCC(=O)NC5=O)cnc4F)CC3)cc2OC(C)C)ncc1C(F)(F)F (stereo not drawn) [GT-07675]
inhibition at 0.5 µM: 40 to 53%
--
Molecule: CC(=O)c1c(C)c2cnc(Nc3ccc(N4CCN(Cc5cc(C6CCC(=O)NC6=O)cnc5F)CC4)cn3)nc2n(C2CCCC2)c1=O (stereo not drawn) [GT-07591]
inhibition at 0.5 µM: 20 to 30%
--
Molecule: Cn1cc(-c2cc(S(C)(=O)=O)ccc2OCc2ccc(N3CCC(=O)NC3=O)cc2)c2cc[nH]c2c1=O [GT-04645]
inhibition at 0.5 µM: 20 to 30%
--
Molecule: CC(C)(O)c1cc2nc(C3CCN(Cc4cncc(C5CCC(=O)NC5=O)c4)CC3)oc2cc1NC(=O)c1cccc(C(F)(F)F)n1 (stereo not drawn) [GT-07630]
inhibition at 0.5 µM: 20 to 30%
--
Molecule: COc1cc(C(=O)NC2CCN(Cc3cccc(N4CCC(=O)NC4=O)c3)CC2)c(F)cc1Nc1ncc(C(F)(F)F)c(Oc2cccc3c2C(=O)N(C)C3)n1 [GT-04257]
inhibition at 0.5 µM: 60 to 80%
